Target: T1, Anti-PSMA Fab
T1 construct: Biotinylated and captured on neutravidin coated plates in the panning ELISA; also called 006 PSMA Fab
Assay: phage ELISA; PSMA Fab on plate pre-incubated with PSMA antigen (competitor), anti-M13-HRP detection
Where no end group is shown, it is not given here.
Decide using Phage binding ELISA signal, Anti-PSMA Fab in presence of PSMA alone. Strictly below 0.1: yes (1). Equal to or above 0.1: no (0).

{"columns": ["Binder", "Assigned Label"],
 "data": [
  ["VDPMCIPRWMCSFL (also called peptide-180 library clone) [Phage-2919]", "yes (1)"],
  ["GLALCKPEWMCIGF (also called peptide-180 library clone) [Phage-2914]", "yes (1)"],
  ["AEMRCIPEWMCSGF (also called peptide-180 library clone) [Phage-2907]", "no (0)"],
  ["AVHYCQPSWMCTGF (also called peptide-180 library clone) [Phage-2912]", "yes (1)"],
  ["GEPVCKPAWMCEGF (also called peptide-180 library clone) [Phage-2909]", "no (0)"],
  ["GGLLCKPAWMCNWL (also called peptide-180 library clone) [Phage-2915]", "no (0)"],
  ["LDVLCKPTWMCMGF (also called peptide-180 library clone) [Phage-2917]", "yes (1)"],
  ["GERWCTPPWMCVGL (also called peptide-180 library clone) [Phage-2913]", "no (0)"],
  ["LPRICVPEWMCLGF (also called peptide-180 library clone) [Phage-2918]", "yes (1)"],
  ["LGLACIPEWMCVGF (also called peptide-180 library clone) [Phage-2908]", "yes (1)"],
  ["VEPSCVPYWMCLGF (cysteine pairing not given here; also: peptide displayed as fusion to phage pIII, also called peptide-180 library clone) [Phage-2906]", "yes (1)"]
]}

Ref: patent US20260242478A1
